Values compiled from patent US20210388087A1.

- Target System: T1, Human CD137 ECD (human)
- T1 construct: also called 4-1BB
- T1 sequence (chain, as listed by the source limits assumed): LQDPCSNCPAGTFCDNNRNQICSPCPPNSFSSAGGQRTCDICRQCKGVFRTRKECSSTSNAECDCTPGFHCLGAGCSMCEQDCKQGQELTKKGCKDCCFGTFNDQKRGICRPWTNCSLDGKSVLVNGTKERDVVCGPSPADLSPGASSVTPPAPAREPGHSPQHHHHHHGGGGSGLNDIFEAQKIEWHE
- Experiment Summary: SPR, vs parent H183/L072
Readout: fold change of affinity
Numeric answer plus unit only.

Recorded fold change of affinity of dBBDu183H V100cT / dBBDu072L (antibody, name in Kabat numbering, V domains shown, as m1, one VH change) VH: QVQLVESGGGLVQPGRSLRLSCAASGFTFSNAWMHWVRQAPGKGLEWVAQIKDKGNAYAAYYAPSVKGRFTISRDDSKNSIYLQMNSLKTEDTAVYYCHYVHYASASTTLPAFGVDAWGQGTTVTVSS VL: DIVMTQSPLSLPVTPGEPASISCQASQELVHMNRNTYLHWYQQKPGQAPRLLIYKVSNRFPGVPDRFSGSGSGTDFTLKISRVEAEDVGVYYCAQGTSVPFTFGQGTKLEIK , please.
0.5 fold

Recorded fold change of affinity of dBBDu183H G65K / dBBDu072L (antibody, name in Kabat numbering, V domains shown, as m1, one VH change) VH: QVQLVESGGGLVQPGRSLRLSCAASGFTFSNAWMHWVRQAPGKGLEWVAQIKDKGNAYAAYYAPSVKKRFTISRDDSKNSIYLQMNSLKTEDTAVYYCHYVHYASASTVLPAFGVDAWGQGTTVTVSS VL: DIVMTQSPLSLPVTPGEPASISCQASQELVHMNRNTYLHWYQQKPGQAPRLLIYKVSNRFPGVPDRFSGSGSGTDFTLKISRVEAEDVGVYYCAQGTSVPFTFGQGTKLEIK , please.
1.1 fold

Recorded fold change of affinity of dBBDu183H L100dV / dBBDu072L (antibody, name in Kabat numbering, V domains shown, as m1, one VH change) VH: QVQLVESGGGLVQPGRSLRLSCAASGFTFSNAWMHWVRQAPGKGLEWVAQIKDKGNAYAAYYAPSVKGRFTISRDDSKNSIYLQMNSLKTEDTAVYYCHYVHYASASTVVPAFGVDAWGQGTTVTVSS VL: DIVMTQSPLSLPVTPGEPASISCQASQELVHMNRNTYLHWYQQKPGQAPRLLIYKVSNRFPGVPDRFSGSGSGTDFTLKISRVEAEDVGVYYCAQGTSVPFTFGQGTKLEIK , please.
0.5 fold

Recorded fold change of affinity of dBBDu183H V100cQ / dBBDu072L (antibody, name in Kabat numbering, V domains shown, as m1, one VH change) VH: QVQLVESGGGLVQPGRSLRLSCAASGFTFSNAWMHWVRQAPGKGLEWVAQIKDKGNAYAAYYAPSVKGRFTISRDDSKNSIYLQMNSLKTEDTAVYYCHYVHYASASTQLPAFGVDAWGQGTTVTVSS VL: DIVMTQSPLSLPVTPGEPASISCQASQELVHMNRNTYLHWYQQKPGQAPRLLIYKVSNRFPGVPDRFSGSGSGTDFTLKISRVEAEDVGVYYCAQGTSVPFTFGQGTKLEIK , please.
1.4 fold

Recorded fold change of affinity of dBBDu183H Y94Q / dBBDu072L (antibody, name in Kabat numbering, V domains shown, as m1, one VH change) VH: QVQLVESGGGLVQPGRSLRLSCAASGFTFSNAWMHWVRQAPGKGLEWVAQIKDKGNAYAAYYAPSVKGRFTISRDDSKNSIYLQMNSLKTEDTAVYYCHQVHYASASTVLPAFGVDAWGQGTTVTVSS VL: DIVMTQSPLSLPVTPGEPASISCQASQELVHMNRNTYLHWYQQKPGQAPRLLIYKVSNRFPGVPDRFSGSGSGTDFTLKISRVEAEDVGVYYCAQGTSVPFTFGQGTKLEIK , please.
0.3 fold
